Recorded values, source the RNAGym collection of RNA variant scans (doi:10.1126/science.aae0568).

B1: tRNA (parent)
chain: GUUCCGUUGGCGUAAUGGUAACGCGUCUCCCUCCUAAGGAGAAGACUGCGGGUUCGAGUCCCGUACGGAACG

- Variants of: B1
- methodDescription: yeast fitness relative to wild type (ratio to wild type); higher = fitter; tRNA-Arg(CCU), competitive growth, 37 C, YPD
Variants at the floor of the assay were thinned out.
Where yeast fitness equals or exceeds 0.6, the correct label is y; where it does not, the label is n.

input: Is the recorded value of yeast fitness equal to or greater than 0.6 for this variant? `GUACCGUUGGCGUAAUGGUAACGCGUCUCCCUCCUAAGGAGAAGAUUGCGGGUUCGAGUCCCGUACGGAACG`
output: y

input: Is the recorded value of yeast fitness equal to or greater than 0.6 for this variant? `GUUCCGUUGGCGUAAUGGUAACGCGUCUCCCUCCUAAGGAGCAGACUGCGGGUUCGAGACCCGUACGGUACG`
output: n

input: Is the recorded value of yeast fitness equal to or greater than 0.6 for this variant? `GUUACGUUGGGGGAAUGGUAACGCAUCUCCCUCCUAAGGAGAAGACUGCGGGUUCGAGUCCUAUACGGAACG`
output: n
